Tested target: SHP2-C SH2
Assay info: SH2 binding enrichment of the phosphorylated peptide, bacterial display (enrichment ratio); higher = better substrate or ligand; peptides without Tyr show the background
Recorded measurements of SH2 binding enrichment, one per entry
Lab note: jot down the number only; don't add units.

// worked examples, SH2 binding enrichment included
INSERT INTO assay_data (input_sequence, attribute_measured, readout_number) VALUES
  ('NMRSTYAKLAA [SEC22B_Y193_H190R]', 'SH2 binding enrichment', 9.73),
  ('EAVSIYQFHGQ [CBLC_Y402]', 'SH2 binding enrichment', 0.511),
  ('PLQDVYKIGGI [EEF1A2_Y254]', 'SH2 binding enrichment', 0.574),
  ('EESREYDRLFE [PIK3R1_Y463_K459E_YF]', 'SH2 binding enrichment', 0.473),
  ('PGVDRYSLGTS [C5orf42_Y1451]', 'SH2 binding enrichment', 0.762),
  ('ITVPAYFNDSQ [HSPA9_Y196]', 'SH2 binding enrichment', 0.878);

For the sequence QNTGDYYDLYG [PTPN11_Y62] , report SH2 binding enrichment.
0.725

For the sequence TLARLYHPDST [LRIG1_Y1029] , report SH2 binding enrichment.
0.681

For the sequence PRAEWYRDDLL [MYOM2_Y317_V321L] , report SH2 binding enrichment.
0.716

For the sequence RAILNYIASKY [GSTA3_Y74] , report SH2 binding enrichment.
0.747

* * *

Tested target: Fes (UniProt P07332)
Sequence (P07332 whole entry, looked up): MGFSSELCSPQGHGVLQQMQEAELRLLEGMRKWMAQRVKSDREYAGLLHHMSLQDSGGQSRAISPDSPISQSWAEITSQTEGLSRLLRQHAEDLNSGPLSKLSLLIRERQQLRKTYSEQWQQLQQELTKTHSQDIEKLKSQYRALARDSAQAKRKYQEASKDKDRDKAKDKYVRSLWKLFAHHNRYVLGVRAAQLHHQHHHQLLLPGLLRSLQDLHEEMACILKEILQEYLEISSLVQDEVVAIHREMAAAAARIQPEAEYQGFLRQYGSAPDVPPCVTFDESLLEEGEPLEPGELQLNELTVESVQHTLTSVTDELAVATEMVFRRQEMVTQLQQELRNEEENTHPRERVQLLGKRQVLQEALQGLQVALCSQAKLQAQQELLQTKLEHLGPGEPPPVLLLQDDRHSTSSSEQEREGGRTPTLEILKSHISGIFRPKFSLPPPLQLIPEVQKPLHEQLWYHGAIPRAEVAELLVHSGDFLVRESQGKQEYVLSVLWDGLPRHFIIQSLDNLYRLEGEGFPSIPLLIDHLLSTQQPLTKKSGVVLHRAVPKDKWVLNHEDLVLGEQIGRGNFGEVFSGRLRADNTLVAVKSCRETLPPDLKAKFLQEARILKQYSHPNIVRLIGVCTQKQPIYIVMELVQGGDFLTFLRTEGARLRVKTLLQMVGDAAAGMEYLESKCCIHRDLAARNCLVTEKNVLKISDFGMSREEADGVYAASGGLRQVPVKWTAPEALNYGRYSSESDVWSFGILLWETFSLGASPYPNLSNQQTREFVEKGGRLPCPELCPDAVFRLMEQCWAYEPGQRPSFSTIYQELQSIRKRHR
Assay info: phosphorylation enrichment, bacterial display (enrichment ratio); higher = better substrate or ligand; peptides without Tyr show the background
Recorded measurements of phosphorylation enrichment, one per entry
Lab note: jot down the number only; don't add units.

INSERT INTO results (input_sequence, readout_number) VALUES
  ('VDTLWYKFLKR [EPM2A_Y86_F84L]', 1.11),
  ('TVQVAYYTVMM [SPATA17_Y83_M86V]', 1.5),
  ('IQTDGYRAPEA [UHMK1_Y197]', 0.829),
  ('STSFDYCRVPM [BST2_Y8_YF]', 1.32),
  ('FCRITYDIFPF [INTS13_Y67_M66T_YF]', 1.6);

For the sequence RREWYYEVIIV [BACE1_Y260] , report phosphorylation enrichment.
0.751

For the sequence HRLSTYTKMLF [CHST8_Y251] , report phosphorylation enrichment.
1.52

* * *

Tested target: Jak2 (UniProt O60674)
Sequence (O60674 whole entry, looked up): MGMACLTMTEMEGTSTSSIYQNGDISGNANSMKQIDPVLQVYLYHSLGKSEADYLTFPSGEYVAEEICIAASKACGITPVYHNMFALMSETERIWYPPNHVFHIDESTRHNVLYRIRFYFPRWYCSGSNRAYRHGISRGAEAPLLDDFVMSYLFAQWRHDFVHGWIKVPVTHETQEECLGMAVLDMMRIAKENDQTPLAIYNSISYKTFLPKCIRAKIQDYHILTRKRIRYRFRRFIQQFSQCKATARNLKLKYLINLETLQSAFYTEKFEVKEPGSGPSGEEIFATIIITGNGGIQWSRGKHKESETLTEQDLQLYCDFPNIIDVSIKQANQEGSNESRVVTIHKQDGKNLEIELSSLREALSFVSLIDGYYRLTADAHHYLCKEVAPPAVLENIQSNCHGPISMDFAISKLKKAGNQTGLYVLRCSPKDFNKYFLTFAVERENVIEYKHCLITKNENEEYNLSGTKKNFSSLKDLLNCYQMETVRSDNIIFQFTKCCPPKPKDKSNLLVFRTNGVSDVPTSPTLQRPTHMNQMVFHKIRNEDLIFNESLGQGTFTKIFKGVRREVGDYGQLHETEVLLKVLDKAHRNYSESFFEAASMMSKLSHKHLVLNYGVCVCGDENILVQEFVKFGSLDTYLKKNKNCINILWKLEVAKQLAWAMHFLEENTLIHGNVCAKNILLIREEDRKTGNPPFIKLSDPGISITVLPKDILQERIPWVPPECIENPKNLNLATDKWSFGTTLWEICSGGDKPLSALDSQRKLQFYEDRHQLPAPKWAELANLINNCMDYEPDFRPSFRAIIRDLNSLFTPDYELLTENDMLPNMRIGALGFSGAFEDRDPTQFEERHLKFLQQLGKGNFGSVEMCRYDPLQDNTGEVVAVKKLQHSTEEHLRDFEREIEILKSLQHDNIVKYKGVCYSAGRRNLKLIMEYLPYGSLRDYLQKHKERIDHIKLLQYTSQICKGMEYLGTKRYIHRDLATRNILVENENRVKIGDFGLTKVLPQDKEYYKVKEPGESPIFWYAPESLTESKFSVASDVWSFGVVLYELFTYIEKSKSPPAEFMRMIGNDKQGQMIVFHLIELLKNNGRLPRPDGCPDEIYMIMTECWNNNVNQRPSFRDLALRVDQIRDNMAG
Assay info: phosphorylation enrichment, bacterial display (enrichment ratio); higher = better substrate or ligand; peptides without Tyr show the background
# binarize phosphorylation enrichment: threshold 0.7 inclusive, high side Fulfilled, low side Not fulfilled

INSERT INTO assay_data (input_sequence, class) VALUES
  ('STKPQYQPGEN [SRC_Y530_E527K]', 'Not fulfilled');

Next:
Reported phosphorylation enrichment at or above 0.7? SLIDMYSEVLA [OPA1_Y268_D273A]
Fulfilled

* * *

Tested target: Jak2 (UniProt O60674)
Assay info: phosphorylation enrichment, bacterial display (enrichment ratio); higher = better substrate or ligand; peptides without Tyr show the background
Attribute measured: phosphorylation enrichment
Lab note: jot down the number only; don't add units.

INSERT INTO measurements (input_sequence, readout_number) VALUES
  ('ATHRGYDLDNP [MMUT_Y146_S148L]', 0.698);

For the sequence HGVSSYDTVIS [LDLR_Y465] , report phosphorylation enrichment.
0.911

For the sequence LSDGPYSNPYE [EPOR_Y485] , report phosphorylation enrichment.
3.98

For the sequence LLKKVYLMLDN [STAT1_Y203_M202V] , report phosphorylation enrichment.
1.85

For the sequence GGGCGYNRSSG [FUS_Y232_G230C] , report phosphorylation enrichment.
0.701

For the sequence FPKDVYVDSKD [NDUFAF4_Y69_L65P] , report phosphorylation enrichment.
0.769

For the sequence KLCHLYQDHMQ [WNT5A_Y86] , report phosphorylation enrichment.
0.549

For the sequence LIHLHYIRKDY [BBS4_Y43] , report phosphorylation enrichment.
0.857

For the sequence IALSKYGRVKR [FGF6_Y186] , report phosphorylation enrichment.
0.57

For the sequence PDGHEYIYVDP [PDGFRA_Y572] , report phosphorylation enrichment.
1.81

For the sequence RIGRKYKRVRF [F8_Y442_K444R] , report phosphorylation enrichment.
2.55

For the sequence VTRLWYPVCFG [ITK_Y336_R335W] , report phosphorylation enrichment.
1.02

* * *

Test system: AncSZ
Assay info: phosphorylation enrichment, bacterial display (enrichment ratio); higher = better substrate or ligand; peptides without Tyr show the background
Recorded measurements of phosphorylation enrichment, one per entry
Lab note: jot down the number only; don't add units.

INSERT INTO measurements (input_sequence, tested_target, readout_number) VALUES
  ('DVLVEYQEEGR [GNS_Y416_G418E]', 'AncSZ', 1.32),
  ('GLDGSYLLTDS [SH2D1A_Y29_R32T]', 'AncSZ', 0.864),
  ('DKGTLYIVEQI [PLBD1_Y375]', 'AncSZ', 0.985),
  ('RPGSGYTNIMR [PKLR_Y564]', 'AncSZ', 0.64);

For the sequence RAILNYIASKY [GSTA3_Y74] , report phosphorylation enrichment.
1.44

For the sequence GSERDYTFDEL [EIF2S2_Y174_E177D_YF] , report phosphorylation enrichment.
1.25

* * *

Tested target: c-Src SH2
Assay info: SH2 binding enrichment of the phosphorylated peptide, bacterial display (enrichment ratio); higher = better substrate or ligand; peptides without Tyr show the background
# binarize SH2 binding enrichment: threshold 0.6 inclusive, high side true (1), low side false (0)

Answered cases to consult:
INSERT INTO measurements (input_sequence, class) VALUES
  ('LQTYRYHGHSM [PDHA1_Y289]', 'false (0)'),
  ('CDSSGYWTPEE [PAPPA2_Y908]', 'true (1)'),
  ('RGKEPYTKKAL [TTC21B_Y160]', 'true (1)'),
  ('YTNELYMMMRD [FGFR1_Y730_C725Y]', 'true (1)');

Next:
Reported SH2 binding enrichment at or above 0.6? LFQAKYQIRFR [CRLF1_Y272_YF]
true (1)

* * *

System: c-Abl (mouse)
Assay info: phosphorylation enrichment, bacterial display (enrichment ratio); higher = better substrate or ligand; peptides without Tyr show the background
Class (by phosphorylation enrichment) -- band 1 = under 0.6, band 2 = from 0.6 up to 0.7, band 3 = 0.7 and over

Answered cases to consult:
INSERT INTO results (input_sequence, tested_target, class) VALUES
  ('CDSSGYWTPEE [PAPPA2_Y908]', 'c-Abl (mouse)', 'band 3'),
  ('TVQVAYYTMMM [SPATA17_Y83]', 'c-Abl (mouse)', 'band 3'),
  ('NIRKKYFRAIL [CHD7_Y1217_Q1214R_YF]', 'c-Abl (mouse)', 'band 2'),
  ('VIEQRYNETWL [SLC2A4_Y56_S55R]', 'c-Abl (mouse)', 'band 2'),
  ('PDSVDYPKKGY [CTSK_Y121_R122P]', 'c-Abl (mouse)', 'band 1'),
  ('EDSEFYRAFEE [CASQ2_Y179_K180R_YF]', 'c-Abl (mouse)', 'band 3'),
  ('AIYEGYALPHA [ACTC1_Y171_P166A]', 'c-Abl (mouse)', 'band 3'),
  ('RLEPVYFVAPA [LAMC2_Y250_D247E]', 'c-Abl (mouse)', 'band 3'),
  ('NCLRQYVAGRF [CRB1_Y711_E710Q]', 'c-Abl (mouse)', 'band 1'),
  ('PDDPDYSLVDD [PSTPIP2_Y323_N322D]', 'c-Abl (mouse)', 'band 3');

Which band does IENKPYGMSDP [RET_Y1062_L1061P] fall in?
band 1

Which band does DVLVEYQEEGR [GNS_Y416_G418E] fall in?
band 2

Which band does TINPIHEHVGF [CHN1_Y143_Y143H_YF] fall in?
band 1

Which band does NTFEKYLGEEF [TF_Y669_YF] fall in?
band 2

* * *

Tested on: c-Src
Assay info: phosphorylation enrichment, bacterial display (enrichment ratio); higher = better substrate or ligand; peptides without Tyr show the background
Attribute measured: phosphorylation enrichment
Lab note: jot down the number only; don't add units.

// worked examples, phosphorylation enrichment included
INSERT INTO results (input_sequence, readout_number) VALUES
  ('KVDKEYEVHVR [GHR_Y226_R229H]', 0.444),
  ('CGSLLYGLVHQ [PRKCG_Y122]', 5.57),
  ('SEPDLYFDPRG [PKP1_Y160_C161Y_YF]', 4.46),
  ('EKPAKYDDIKK [GAPDH_Y255]', 0.352),
  ('LNPDGYEKAFE [CPXM2_Y427_YF]', 0.738),
  ('FQASFYRRGDR [LTK_Y677_R673Q_YF]', 0.525),
  ('IYQASYYRRGD [LTK_Y676_R673Q]', 6.2),
  ('AAGGRYDGLVG [HARS1_Y363]', 0.348),
  ('STTSDYQWDFS [MTDH_Y364_V368F]', 0.58),
  ('FGAHNYHPLPV [OAT_Y55_YF]', 0.538);

For the sequence KSAAIYNPVIY [RHO_Y301] , report phosphorylation enrichment.
6.12

For the sequence GEAEQYVGGGG [FAT4_Y4980] , report phosphorylation enrichment.
0.327

For the sequence KCCCIYEKPRS [PPP1R11_Y64_A69S] , report phosphorylation enrichment.
3.04

Reference for the values: the supplement of paper PMC10065799
